# tested system: Cholinesterase (Equus caballus, UniProt P81908)
# Sequence (P81908 whole entry): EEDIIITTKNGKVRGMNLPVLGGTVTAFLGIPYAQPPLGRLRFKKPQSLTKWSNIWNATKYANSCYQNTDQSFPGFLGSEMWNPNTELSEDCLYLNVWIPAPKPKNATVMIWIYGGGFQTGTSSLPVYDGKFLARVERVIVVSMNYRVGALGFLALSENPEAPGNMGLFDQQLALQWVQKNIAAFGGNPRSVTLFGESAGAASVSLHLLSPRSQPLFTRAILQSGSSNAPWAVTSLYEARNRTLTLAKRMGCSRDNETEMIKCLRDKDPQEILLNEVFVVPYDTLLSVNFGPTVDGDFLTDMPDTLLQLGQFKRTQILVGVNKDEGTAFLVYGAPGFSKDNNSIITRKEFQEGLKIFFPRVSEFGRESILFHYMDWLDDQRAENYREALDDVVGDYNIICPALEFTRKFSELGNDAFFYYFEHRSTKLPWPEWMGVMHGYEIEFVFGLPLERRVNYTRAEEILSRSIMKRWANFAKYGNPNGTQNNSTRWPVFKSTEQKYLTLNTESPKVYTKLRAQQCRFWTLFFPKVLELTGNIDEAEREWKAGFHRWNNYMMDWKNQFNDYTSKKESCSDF
metric name: IC50 (nM)
Numeric answer only, unit nM assumed.

Use the examples below as a reference point.
[
  {
    "structure notation": "CC(=O)SCCC(=O)NCCCCNc1c2c(nc3ccccc13)CCCC2",
    "metric name": "IC50",
    "measured value": 155
  },
  {
    "structure notation": "CC(=O)SCCC(=O)NCCCCCCNc1c2c(nc3cc(Cl)ccc13)CCCC2",
    "metric name": "IC50",
    "measured value": 91.2
  },
  {
    "structure notation": "O=C(CCS)NCCCNc1c2c(nc3ccccc13)CCCC2",
    "metric name": "IC50",
    "measured value": 182
  },
  {
    "structure notation": "O=C(CCS)NCCCCNc1c2c(nc3ccccc13)CCCC2",
    "metric name": "IC50",
    "measured value": 129
  },
  {
    "structure notation": "O=C(CCS)NCCCCCCNc1c2c(nc3cc(Cl)ccc13)CCCC2",
    "metric name": "IC50",
    "measured value": 178
  }
]

From here, focus on the item given below.
## Task Which IC50 reading was recorded for the compound `CC(=O)SCCC(=O)NCCCNc1c2c(nc3ccccc13)CCCC2` ?
## Result 229
